# assay notes: Half life in mouse plasma at 5 uM by LC-MS/MS analysis
# Type: ADME, cell-free
experimental endpoint: half-life at 5 µM (h)
// return numeric value only (unit: h, not printed)

In: Look at this compound and give its reported half-life at 5 µM. C[C@@H]1C=C2C(=O)O[C@@H]3CC[C@H](C1)[C@]23O
Out: 1.23

* * *

The entries below are paired with their reported half-life at 10 µM.
# assay notes: Chemical stability of the compound in phosphate buffer saline assessed as half life at 10 uM at pH 7.4 by LC-MS/MS analysis
# Assay type: physicochemical
# conditions: phosphate buffered saline
// return numeric value only (unit: min, not printed)

CC(=O)N[C@@H](CS[C@H]1C2C(=O)O[C@@H]3CC[C@H](C[C@@H]1C)[C@]23O)C(=O)O (stereo not given in full) = 54

Continue with the next compound.
In: Look at this compound and give its reported half-life at 10 µM. C[C@H]1C[C@H]2CC[C@H]3OC(=O)C([C@@H]1SC[C@H](N)C(=O)O)[C@@]23O (stereo not given in full)
Out: 14

* * *

# assay notes: Tmax in mouse plasma at 5 mg/kg, ip by LC-MS/MS analysis
# Assay type: ADME, organism-based
experimental endpoint: Tmax (min)
// return numeric value only (unit: min, not printed)

In: Look at this molecule and give its reported Tmax. C[C@@H]1C=C2C(=O)O[C@@H]3CC[C@H](C1)[C@]23O
Out: 5

* * *

# assay notes: Apparent half life in mouse plasma at 5 mg/kg, ip
# Assay type: ADME, organism-based
experimental endpoint: half-life (h)
// return numeric value only (unit: h, not printed)

In: Look at this molecule and give its reported half-life. C[C@@H]1C=C2C(=O)O[C@@H]3CC[C@H](C1)[C@]23O
Out: 2.4

* * *

# Tested on: Mus musculus
# assay notes: AUC (0 to infinity) in mouse plasma assessed as galiellalactone level at 10 mg/kg, po by LC-MS/MS analysis
# Type: ADME, organism-based
# Design: dose 10 mg/kg, route oral, time infinity
# conditions: in vivo
Classification by AUC follows these ranges: low group = under 20 µg/mL/min, middle group = from 20 µg/mL/min up to 100 µg/mL/min, high group = 100 µg/mL/min and over

The examples below pair each entry with its known result.
COC(=O)[C@H](CCS[C@H]1C2C(=O)O[C@@H]3CC[C@H](C[C@@H]1C)[C@]23O)NC(C)=O (some centres undefined) = high group
CCOC(=O)[C@H](CS[C@H]1C2C(=O)O[C@@H]3CC[C@H](C[C@@H]1C)[C@]23O)NC(C)=O (some centres undefined) = middle group
COC(=O)[C@H](CS[C@H]1C2C(=O)O[C@@H]3CC[C@H](C[C@@H]1C)[C@]23O)NC(C)=O (some centres undefined) = high group

In: GET /class?item= COC(=O)[C@H](CS[C@H]1C2C(=O)O[C@@H]3CC[C@H](C[C@@H]1C)[C@]23O)NC(=O)C(C)C (some centres undefined)
Out: middle group

In: Queued: COC(=O)[C@H](CS[C@H]1C2C(=O)O[C@@H]3CC[C@H](C[C@@H]1C)[C@]23O)NC(=O)OC(C)(C)C (some centres undefined)
Out: low group

In: Queued: COC(=O)[C@H](CS[C@H]1C2C(=O)O[C@@H]3CC[C@H](C[C@@H]1C)[C@]23O)NC(=O)c1ccccc1F (some centres undefined)
Out: low group

In: Queued: C[C@H]1C[C@H]2CC[C@H]3OC(=O)C([C@@H]1Sc1ccccc1)[C@@]23O (some centres undefined)
Out: middle group

* * *

# assay notes: Cmax in mouse plasma at 5 mg/kg, ip by LC-MS/MS analysis
# Type: ADME, organism-based
# Set-up: dose 5 mg/kg, route intraperitoneal
experimental endpoint: Cmax (ng/mL)
// return numeric value only (unit: ng/mL, not printed)

In: Look at this compound and give its reported Cmax. C[C@@H]1C=C2C(=O)O[C@@H]3CC[C@H](C1)[C@]23O
Out: 5520

* * *

# assay notes: Chemical stability of the compound in phosphate buffer saline assessed as half life at 10 uM at pH 7.4 by LC-MS/MS analysis
# Type: physicochemical
# conditions: phosphate buffered saline
The entries below are paired with their reported half-life at 10 µM.

Please review the following examples before continuing.
C[C@H]1C[C@H]2CC[C@H]3OC(=O)C([C@@H]1SC[C@H](NC(=O)CC[C@H](N)C(=O)O)C(=O)NCC(=O)O)[C@@]23O (some centres not stated) = > 2.5 h
COC(=O)[C@H](CS[C@H]1C2C(=O)O[C@@H]3CC[C@H](C[C@@H]1C)[C@]23O)NC(C)=O (some centres not stated) = > 2.5 h
CC(=O)N[C@@H](CS[C@H]1C2C(=O)O[C@@H]3CC[C@H](C[C@@H]1C)[C@]23O)C(N)=O (some centres not stated) = > 2.5 h
COC(=O)[C@@H](N)CS[C@H]1C2C(=O)O[C@@H]3CC[C@H](C[C@@H]1C)[C@]23O (some centres not stated) = 0.367 h
COC(=O)[C@H](CS[C@H]1C2C(=O)O[C@@H]3CC[C@H](C[C@@H]1C)[C@]23O)NC(=O)[C@@H](N)C(C)C (some centres not stated) = 1.1 h
COC(=O)[C@H](CS[C@H]1C2C(=O)O[C@@H]3CC[C@H](C[C@@H]1C)[C@]23O)NC(=O)C(C)C (some centres not stated) = > 2.5 h

In: Look at this compound and give its reported half-life at 10 µM. C[C@H]1C[C@H]2CC[C@H]3OC(=O)C([C@@H]1SCc1ccccc1)[C@@]23O (some centres not stated)
Out: > 2.5 h

* * *

The entries below are paired with their reported t1/2(app).
# Test system: Mus musculus
# assay notes: Apparent half life in mouse plasma assessed as galiellalactone level at 10 mg/kg, po by LC-MS/MS analysis
# Type: ADME, organism-based
# conditions: in vivo
// return numeric value only (unit: h, not printed)

Please review the following examples before continuing.
COC(=O)[C@@H](N)CS[C@H]1C2C(=O)O[C@@H]3CC[C@H](C[C@@H]1C)[C@]23O (some centres undefined) = 4.63
COC(=O)[C@H](CCS[C@H]1C2C(=O)O[C@@H]3CC[C@H](C[C@@H]1C)[C@]23O)NC(C)=O (some centres undefined) = 1.8
COC(=O)[C@H](CS[C@H]1C2C(=O)O[C@@H]3CC[C@H](C[C@@H]1C)[C@]23O)NC(=O)OC(C)(C)C (some centres undefined) = 5.8

Continue with the next compound.
In: For Mus musculus, provide t1/2(app) of COC(=O)[C@H](CS[C@H]1C2C(=O)O[C@@H]3CC[C@H](C[C@@H]1C)[C@]23O)NC(=O)[C@@H](N)C(C)C (some centres undefined) please.
Out: 2.15

* * *

# assay notes: Half life of compound in acidic buffer at pH 1.2 at 10 uM by LC-MS analysis
# Format: physicochemical
The entries below are paired with their reported half-life at 10 µM.

CC(=O)N[C@@H](CS[C@H]1C2C(=O)O[C@@H]3CC[C@H](C[C@@H]1C)[C@]23O)C(=O)O (stereo partly drawn) = 1.9 h

In: Look at this compound and give its reported half-life at 10 µM. COC(=O)[C@@H](N)CS[C@H]1C2C(=O)O[C@@H]3CC[C@H](C[C@@H]1C)[C@]23O (stereo partly drawn)
Out: > 2.5 h

In: Queued: C[C@H]1C[C@H]2CC[C@H]3OC(=O)C([C@@H]1SC[C@H](N)C(=O)O)[C@@]23O (stereo partly drawn)
Out: > 2.5 h

* * *

# System: Mus musculus
# assay notes: AUC (0 to t) in mouse plasma assessed as galiellalactone level at 10 mg/kg, po by LC-MS/MS analysis
# Type: ADME, organism-based
# conditions: in vivo
Lab note - cut at 80 µg/mL/min for AUCt: 1 if strictly below, 0 if not.

The examples below pair each entry with its known result.
COC(=O)[C@H](CS[C@H]1C2C(=O)O[C@@H]3CC[C@H](C[C@@H]1C)[C@]23O)NC(C)=O (stereo not given in full) = 0
COC(=O)[C@H](CS[C@H]1C2C(=O)O[C@@H]3CC[C@H](C[C@@H]1C)[C@]23O)NC(=O)[C@@H](N)C(C)C (stereo not given in full) = 0
C[C@H]1C[C@H]2CC[C@H]3OC(=O)C([C@@H]1Sc1ccccc1)[C@@]23O (stereo not given in full) = 1
COC(=O)[C@@H](N)CS[C@H]1C2C(=O)O[C@@H]3CC[C@H](C[C@@H]1C)[C@]23O (stereo not given in full) = 0

Let's switch to this compound now.
In: Confirm or reject: AUCt of COC(=O)[C@H](CS[C@H]1C2C(=O)O[C@@H]3CC[C@H](C[C@@H]1C)[C@]23O)NC(=O)OC(C)(C)C (stereo not given in full) lies strictly below 80 µg/mL/min
Out: 1
